- Test system: PC-3 cells
- assayText: MTT cytotoxicity assay, PC-3

[
  {
    "compound": "Cc1c(C)c2c(c(C)c1OC(=O)CCC(=O)O)CC[C@@](C)(CCC[C@H](C)CCC[C@H](C)CCCC(C)C)O2 [α-TOS, α-tocopherol succinate, reference compound]",
    "censoringOperator": "=",
    "IC50 [µM]": 37
  },
  {
    "compound": "CC(=O)[O][Pt]([NH2])([NH2])([Cl])([Cl])[O]C(C)=O [Pt(IV)(OAc)2]",
    "censoringOperator": ">",
    "IC50 [µM]": 100
  }
]

###

- System: A2780/CP70 cells (CisPt resistant)
- assayText: MTT cytotoxicity assay, A2780/CP70
pIC50: −log10 of the molar value.
experimentalReadout: pIC50

[
  {
    "molecule": "Cc1c(C)c2c(c(C)c1OC(=O)CCC(=O)O)CC[C@@](C)(CCC[C@H](C)CCC[C@H](C)CCCC(C)C)O2 [α-TOS, α-tocopherol succinate, reference compound]",
    "resultValue": 4.66
  }
]
